# System: H446 SCLC cells
# Experimental Protocol: Cell growth inhibition assay, H446 SCLC cells
# Type: cell-based
# Reported Conditions: Homo sapiens, NCI-H446, 504 h; H446 cell line, 21 days of treatment; read-out: inhibition of cell proliferation, mean IC50

[
  {
    "Smiles Structure": "COc1cc(C)[nH]c(=O)c1CN1CCc2c(Cl)cc([C@H](OC)C3COC3)c(Cl)c2C1=O",
    "Study System": "H446 SCLC cells",
    "Unit Info": "nM",
    "IC50": 109
  }
]

###

# Test system: H69 SCLC cells
# Experimental Protocol: Cell growth inhibition assay, H69 SCLC cells
# Format: cell-based
# Reported Conditions: Homo sapiens, NCI-H69, 504 h; H69 cell line, 21 days of treatment; read-out: inhibition of cell proliferation, mean IC50

[
  {
    "Smiles Structure": "COc1cc(C)[nH]c(=O)c1CN1CCc2c(Cl)cc([C@H](OC)C3COC3)c(Cl)c2C1=O",
    "Study System": "H69 SCLC cells",
    "IC50": "224 nM"
  }
]
